B1: GNB5 (parent)
chain: YYPSGDAFASGSDDATCRLYDLRA

Variants of: B1
procedureDetails: protein stability index of a GFP-peptide fusion (GPS, HEK-293T) (PSI 1-6); higher = more stable;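 also: lentivirally expressed fusions sorted by FACS into six bins by GFP to DsRed ratio, PSI derived from sequencing read proportions per bin multiplied by bin number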
particulars: c terminus: a fixed tail appended
Answer each item with its documented protein stability index.
Give a plain numeric answer without units written out.

Prompt: Look up and state reported protein stability index for Y20T
Response: 2.65

Prompt: Look up and state reported protein stability index for F8V
Response: 4.07

Prompt: Look up and state reported protein stability index for D14N
Response: 1.98

Prompt: Look up and state reported protein stability index for A7R
Response: 3.1

Prompt: Look up and state reported protein stability index for R23L
Response: 2.03

Prompt: Look up and state reported protein stability index for P3C
Response: 2.75

Prompt: Look up and state reported protein stability index for D21W
Response: 2.25

Prompt: Look up and state reported protein stability index for D14L
Response: 1.92

Prompt: Look up and state reported protein stability index for A24P
Response: 2.34

Prompt: Look up and state reported protein stability index for P3Q
Response: 3.21

Prompt: Look up and state reported protein stability index for T16L
Response: 2.32

Prompt: Look up and state reported protein stability index for C17L
Response: 2.87

Prompt: Look up and state reported protein stability index for G5E
Response: 3.96

Prompt: Look up and state reported protein stability index for S4R
Response: 2.46

Prompt: Look up and state reported protein stability index for P3S
Response: 3.27

Prompt: Look up and state reported protein stability index for R23Q
Response: 2.47

Prompt: Look up and state reported protein stability index for F8W
Response: 2.62

Prompt: Look up and state reported protein stability index for S12C
Response: 2.98

Prompt: Look up and state reported protein stability index for S4Q
Response: 3.48

Prompt: Look up and state reported protein stability index for R23G
Response: 2.65

Prompt: Look up and state reported protein stability index for A7F
Response: 1.77

Prompt: Look up and state reported protein stability index for D21K
Response: 2.43

Prompt: Look up and state reported protein stability index for D21F
Response: 1.5

Prompt: Look up and state reported protein stability index for S10M
Response: 2.16

Prompt: Look up and state reported protein stability index for T16G
Response: 2.46

Prompt: Look up and state reported protein stability index for G5R
Response: 3.12

Prompt: Look up and state reported protein stability index for R18P
Response: 3.13

Prompt: Look up and state reported protein stability index for Y2F
Response: 2.03

Prompt: Look up and state reported protein stability index for S10G
Response: 2.36

Prompt: Look up and state reported protein stability index for L22N
Response: 2.84
